hepatocyte CLint at 1 µM values, listed per item
experiment: Human Hepatocyte Stability (Test D); assay type: in vitro ADME; conditions: human, cryopreserved pooled human hepatocytes (LiverPool 10-Donor), geometric mean if run multiple times
// note: answer is a bare numeric in µL/min/1e6 cells

Compound: CCC(C)(C)CNC(=O)[C@H]1CCC[C@H]1NC(=O)c1cc(O[C@H]2CC[C@@](C)(C(=O)O)CC2)c(F)cc1OC [Example 58]
Value Measured: 1.9
--
Compound: CCC(CC)CNC(=O)[C@H]1[C@@H]2CC[C@@H](C2)[C@H]1NC(=O)c1cc(OC2CCC(C)(C(=O)O)CC2)c(F)cc1OC (some centres unmarked) [Example 43]
Value Measured: 5
--
Compound: COc1cc(F)c(O[C@H]2CC[C@@](C)(C(=O)O)CC2)cc1C(=O)NC1C2CCC(C2)C1C(=O)Nc1ccc(F)c(S(F)(F)(F)(F)F)c1 (single isomer, unassigned) [Example 520]
Value Measured: 5.7
--
Compound: COc1cc(C#N)c(O[C@H]2CC[C@@](C)(C(=O)O)CC2)cc1C(=O)NC1C2CCC(O2)C1C(=O)NCC1(C)CCC1 (single isomer, unassigned) [Example 534]
Value Measured: 43
--
Compound: COc1cc(F)c(O[C@H]2CC[C@@](C)(C(=O)O)CC2)cc1C(=O)N[C@@H]1CCC[C@@H]1C(=O)Nc1ccc(F)c(S(F)(F)(F)(F)F)c1 [Example 352]
Value Measured: 13

Req: Provide one value: measured hepatocyte CLint at 1 µM of COc1cc(Cl)c(O[C@H]2CC[C@@](C)(C(=O)O)CC2)cc1C(=O)N[C@@H]1[C@H]2CC[C@H](C2)[C@@H]1C(=O)NC12CC(F)(C1)C2 [Example 411]
Resp: 2.1

Req: Tell me hepatocyte CLint at 1 µM reported for COc1cc(F)c(O[C@H]2CC[C@@H](C(=O)O)CC2)cc1C(=O)N[C@@H]1CCC[C@@H]1C(=O)Nc1ccc(F)c(C(F)(F)F)c1 [Example 492]
Resp: 18

Req: Please give the documented hepatocyte CLint at 1 µM of COc1cc(F)c(O[C@H]2CC[C@@H](C(=O)O)CC2)cc1C(=O)N[C@@H]1[C@H]2CC[C@H](C2)[C@@H]1C(=O)N[C@H](C)C(C)(C)C [Example 200]
Resp: 3.7

Req: Tell me its hepatocyte CLint at 1 µM given CC1(CNC(=O)[C@H]2[C@H]3CC[C@H](C3)[C@H]2NC(=O)c2cc(O[C@H]3CC[C@@](C)(C(=O)O)CC3)c(C#N)cc2F)CCC1 [Example 413] as the entry.
Resp: 4.5

Req: Give recorded hepatocyte CLint at 1 µM. COc1cc(C#N)c(-c2ccc(OCC(=O)O)cc2)cc1C(=O)N[C@@H]1[C@H]2CC[C@H](C2)[C@@H]1C(=O)Nc1cccc(S(=O)(=O)C(F)(F)F)c1 [Example 329]
Resp: 5.6

Req: Supply recorded hepatocyte CLint at 1 µM for COc1cc(F)c(-c2ccc(C(=O)O)cc2)cc1C(=O)N[C@H]1[C@@H](C(=O)Nc2ccc(F)c(S(=O)(=O)C(F)(F)F)c2)[C@@H]2C=C[C@H]1C2 (racemic) [Example 296] here.
Resp: 22

---

experiment: Solubility (Test F); assay type: physicochemical; conditions: arithmetic mean if run multiple times
// reported solubility per item
Express the result in µM but write the number alone.

Molecule: COc1cc(F)c(-c2ccc(C3(C(=O)O)CC3)cc2)cc1C(=O)N[C@H]1[C@@H](C(=O)Nc2cccc(S(=O)(=O)C(F)(F)F)c2)[C@@H]2C=C[C@H]1C2 (racemic) [Example 288]
solubility [µM]: 24

Molecule: COc1cc(F)c(-c2ccc(S(N)(=O)=O)cc2)cc1C(=O)N[C@@H]1[C@H]2CC[C@H](C2)[C@@H]1C(=O)Nc1cccc(S(=O)(=O)C(F)(F)F)c1 [Example 248]
solubility [µM]: 2

Now consider a different molecule.
Req: Provide one value: measured solubility of COc1cc(C#N)c(O[C@H]2CC[C@@](C)(C(=O)O)CC2)cc1C(=O)N[C@@H]1[C@H]2CC[C@H](C2)[C@@H]1C(=O)NCC1(O)CCCCCC1 [Example 103]
Resp: 860
